# protocol details: Oral bioavailability in male Sprague-Dawley rat at 10 mg/kg measured after 24 hrs by LC-MS/MS analysis
# Type: ADME, organism-based
# setup conditions: in vivo
readout: bioavailability (%)
Numbers only, in %.

Req: Report bioavailability for O=C1CCC(N2C(=O)c3ccc(N4CCN(CC5CCN(C(=O)c6ccc(-c7cnc8ncc(Cc9ccc%10ncccc%10c9)n8n7)cc6F)CC5)CC4)cc3C2=O)C(=O)N1 (stereo unspecified) please.
Resp: 16.3

* * *

# system name: von Hippel-Lindau disease tumor suppressor/Hepatocyte growth factor receptor (Homo sapiens, UniProt P08581+P40337)
# Sequence (P40337 whole entry partner): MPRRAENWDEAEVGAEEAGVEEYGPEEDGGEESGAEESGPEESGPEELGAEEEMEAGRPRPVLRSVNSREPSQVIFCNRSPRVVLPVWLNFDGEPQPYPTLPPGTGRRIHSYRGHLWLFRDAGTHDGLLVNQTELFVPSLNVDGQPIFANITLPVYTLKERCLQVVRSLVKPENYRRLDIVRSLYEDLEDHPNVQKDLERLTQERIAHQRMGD
# Sequence (P08581 25-1390 limits assumed): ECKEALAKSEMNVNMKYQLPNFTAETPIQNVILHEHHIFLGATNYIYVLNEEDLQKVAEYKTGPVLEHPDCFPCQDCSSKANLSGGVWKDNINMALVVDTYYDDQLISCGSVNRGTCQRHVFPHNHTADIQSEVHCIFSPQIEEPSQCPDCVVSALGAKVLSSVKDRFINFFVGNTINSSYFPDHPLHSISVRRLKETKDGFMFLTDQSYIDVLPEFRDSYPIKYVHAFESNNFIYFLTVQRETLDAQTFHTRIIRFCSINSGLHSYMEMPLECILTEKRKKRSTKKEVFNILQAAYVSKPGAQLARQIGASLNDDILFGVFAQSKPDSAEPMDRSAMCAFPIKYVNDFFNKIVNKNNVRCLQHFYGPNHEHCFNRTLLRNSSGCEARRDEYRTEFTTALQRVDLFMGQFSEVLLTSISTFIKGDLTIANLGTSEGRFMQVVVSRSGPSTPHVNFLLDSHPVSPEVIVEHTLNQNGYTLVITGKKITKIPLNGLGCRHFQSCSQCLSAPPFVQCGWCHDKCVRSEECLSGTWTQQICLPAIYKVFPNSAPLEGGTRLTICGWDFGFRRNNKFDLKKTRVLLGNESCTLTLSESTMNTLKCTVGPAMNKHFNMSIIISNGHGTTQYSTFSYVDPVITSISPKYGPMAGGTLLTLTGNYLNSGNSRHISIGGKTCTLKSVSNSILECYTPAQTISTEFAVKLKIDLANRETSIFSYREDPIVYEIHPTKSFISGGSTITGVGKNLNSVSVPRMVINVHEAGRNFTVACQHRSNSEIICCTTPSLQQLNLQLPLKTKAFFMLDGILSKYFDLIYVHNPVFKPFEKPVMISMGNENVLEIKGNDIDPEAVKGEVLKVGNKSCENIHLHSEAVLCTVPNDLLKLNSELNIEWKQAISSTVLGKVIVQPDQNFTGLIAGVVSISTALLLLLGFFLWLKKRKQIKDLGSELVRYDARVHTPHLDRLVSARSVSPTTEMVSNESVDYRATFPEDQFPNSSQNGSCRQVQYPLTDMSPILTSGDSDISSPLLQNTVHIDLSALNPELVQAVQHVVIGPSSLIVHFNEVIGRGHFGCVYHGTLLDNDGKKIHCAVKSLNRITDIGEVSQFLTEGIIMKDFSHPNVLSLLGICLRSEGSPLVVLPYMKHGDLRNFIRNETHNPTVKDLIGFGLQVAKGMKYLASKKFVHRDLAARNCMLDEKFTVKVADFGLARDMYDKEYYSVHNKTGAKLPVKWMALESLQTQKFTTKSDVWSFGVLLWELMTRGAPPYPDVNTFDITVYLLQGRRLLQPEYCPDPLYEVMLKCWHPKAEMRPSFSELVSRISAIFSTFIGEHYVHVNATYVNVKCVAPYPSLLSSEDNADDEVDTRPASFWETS
# protocol details: PROTAC activity at VHL/c-MET in human MKN-45 cells assessed as induction of c-MET degradation by measuring residual activity at 100 nM incubated for 24 hrs by Western blot analysis (reference value: 100 %)
# Format: cell-based
readout: Activity
A complete answer gives the number followed by the unit.

Take a look at these entries with their results.
Req: Report Activity for `Cc1ncsc1-c1ccc([C@H](C)NC(=O)[C@@H]2C[C@@H](O)CN2C(=O)[C@@H](NC(=O)CCCCCCCNC(=O)c2ccc(-c3cnc4ncc(Cc5ccc6ncccc6c5)n4n3)cc2F)C(C)(C)C)cc1` please.
Resp: 19%

Req: Report Activity for `Cc1ncsc1-c1ccc([C@H](C)NC(=O)[C@@H]2C[C@@H](O)CN2C(=O)[C@@H](NC(=O)CCOCCOCCC(=O)N2CCC(n3cc(-c4cnc(N)c(O[C@H](C)c5c(Cl)ccc(F)c5Cl)c4)cn3)CC2)C(C)(C)C)cc1` please.
Resp: 107%

Req: Report Activity for `Cc1ncsc1-c1ccc([C@H](C)NC(=O)[C@@H]2C[C@@H](O)CN2C(=O)[C@@H](NC(=O)CCOCCOCCOCCOCCC(=O)N2CCC(n3cc(-c4cnc(N)c(O[C@H](C)c5c(Cl)ccc(F)c5Cl)c4)cn3)CC2)C(C)(C)C)cc1` please.
Resp: 127%

I need Activity for every entry listed below, if you could help.
1. Cc1ncsc1-c1ccc([C@H](C)NC(=O)[C@@H]2C[C@@H](O)CN2C(=O)[C@@H](NC(=O)CCCCC(=O)N2CCC(COc3cnc(-c4cccc(Cn5nc(-c6cccc(C#N)c6)ccc5=O)c4)nc3)CC2)C(C)(C)C)cc1
2. Cc1ncsc1-c1ccc([C@H](C)NC(=O)[C@@H]2C[C@@H](O)CN2C(=O)[C@@H](NC(=O)CN2CCN(CCCCNC(=O)c3ccc(-c4cnc5ncc(Cc6ccc7ncccc7c6)n5n4)cc3F)CC2)C(C)(C)C)cc1
3. Cc1ncsc1-c1ccc([C@H](C)NC(=O)[C@@H]2C[C@@H](O)CN2C(=O)[C@@H](NC(=O)CN2CCN(CCCCCC(=O)N3CCC(n4cc(-c5cnc(N)c(O[C@H](C)c6c(Cl)ccc(F)c6Cl)c5)cn4)CC3)CC2)C(C)(C)C)cc1

Resp:
["74%", "78%", "115%"]
